The origin of these recorded values is ChEMBL document CHEMBL5226304.

# ASSAYED TARGET: Cyclin-dependent kinase 5/CDK5 activator 1 (Homo sapiens)
# Sequence (Q00535 whole entry): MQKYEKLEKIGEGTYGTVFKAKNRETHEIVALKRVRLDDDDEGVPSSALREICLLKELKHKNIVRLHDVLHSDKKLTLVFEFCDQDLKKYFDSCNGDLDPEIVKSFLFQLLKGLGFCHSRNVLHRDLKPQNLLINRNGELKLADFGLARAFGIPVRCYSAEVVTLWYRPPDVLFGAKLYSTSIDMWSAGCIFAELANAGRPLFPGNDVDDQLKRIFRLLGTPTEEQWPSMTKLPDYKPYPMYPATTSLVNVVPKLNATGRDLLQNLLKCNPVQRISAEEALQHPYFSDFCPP
# Sequence (Q15078 whole entry, further chain): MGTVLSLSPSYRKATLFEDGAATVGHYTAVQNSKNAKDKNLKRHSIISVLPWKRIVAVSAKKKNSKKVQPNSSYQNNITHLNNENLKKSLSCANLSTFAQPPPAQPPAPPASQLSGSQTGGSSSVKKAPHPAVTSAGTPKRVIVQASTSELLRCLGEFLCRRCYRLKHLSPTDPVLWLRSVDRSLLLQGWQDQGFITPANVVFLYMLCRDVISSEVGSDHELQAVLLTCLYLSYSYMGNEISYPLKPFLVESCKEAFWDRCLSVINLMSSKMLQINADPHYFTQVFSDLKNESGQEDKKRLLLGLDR
# EXPERIMENT: Inhibition of CDK5/p25 (unknown origin)
# Type: protein-complex assay
QUANTITY: IC50

{"COMPOUND": "NC1=NC(=O)/C(=C2\\CCNC(=O)c3[nH]c4ccc(Cl)cc4c32)N1", "ASSAYED TARGET": "Cyclin-dependent kinase 5/CDK5 activator 1 (Homo sapiens)", "REPORTED": "191 nM"}
{"COMPOUND": "O=C1NC(=O)/C(=C2\\CCNC(=O)c3[nH]c(Br)cc32)N1 [SPONGIACIDIN D]", "ASSAYED TARGET": "Cyclin-dependent kinase 5/CDK5 activator 1 (Homo sapiens)", "REPORTED": "7000 nM"}
{"COMPOUND": "O=C1Cc2c([nH]c3cc[n+](Cc4ccccc4)cc23)-c2ccccc2N1.[Br-]", "ASSAYED TARGET": "Cyclin-dependent kinase 5/CDK5 activator 1 (Homo sapiens)", "REPORTED": "7300 nM"}
{"COMPOUND": "NC1=NC(=O)/C(=C2\\CCNC(=O)c3[nH]c4ccc(F)cc4c32)N1", "ASSAYED TARGET": "Cyclin-dependent kinase 5/CDK5 activator 1 (Homo sapiens)", "REPORTED": "177 nM"}
{"COMPOUND": "CC(=O)NC1=NC(=O)/C(=C2\\CCNC(=O)c3[nH]c(Br)c(Br)c32)N1", "ASSAYED TARGET": "Cyclin-dependent kinase 5/CDK5 activator 1 (Homo sapiens)", "REPORTED": "533 nM"}
{"COMPOUND": "NC1=N/C(=C2/CCNC(=O)c3[nH]ccc32)C(=O)N1 [DEBROMOHYMENIALDISINE]", "ASSAYED TARGET": "Cyclin-dependent kinase 5/CDK5 activator 1 (Homo sapiens)", "REPORTED": "112 nM"}
{"COMPOUND": "O=C1Cc2c([nH]c3ccc(Br)cc23)-c2cccnc2N1", "ASSAYED TARGET": "Cyclin-dependent kinase 5/CDK5 activator 1 (Homo sapiens)", "REPORTED": "6000 nM"}
{"COMPOUND": "O=C1NCC/C(=N\\Nc2cccnc2Cl)c2c1[nH]c1ccc(F)cc21", "ASSAYED TARGET": "Cyclin-dependent kinase 5/CDK5 activator 1 (Homo sapiens)", "REPORTED": "12 nM"}
{"COMPOUND": "O=C1Cc2c([nH]c3ccc(Br)cc23)-c2sccc2N1", "ASSAYED TARGET": "Cyclin-dependent kinase 5/CDK5 activator 1 (Homo sapiens)", "REPORTED": "120 nM"}
{"COMPOUND": "O=C1NCC/C(=N\\Nc2ccccn2)c2c1[nH]c(Br)c2Br", "ASSAYED TARGET": "Cyclin-dependent kinase 5/CDK5 activator 1 (Homo sapiens)", "REPORTED": "10400 nM"}
{"COMPOUND": "O=C1Cc2c([nH]c3cc[n+]([O-])cc23)-c2ccccc2N1", "ASSAYED TARGET": "Cyclin-dependent kinase 5/CDK5 activator 1 (Homo sapiens)", "REPORTED": "> 10000 nM"}
{"COMPOUND": "NC1=NC(=O)/C(=C2\\CCNC(=O)c3[nH]cc(Br)c32)N1", "ASSAYED TARGET": "Cyclin-dependent kinase 5/CDK5 activator 1 (Homo sapiens)", "REPORTED": "79 nM"}
{"COMPOUND": "CCNC1=NC(=O)/C(=C2\\CCNC(=O)c3[nH]c(Br)c(Br)c32)N1", "ASSAYED TARGET": "Cyclin-dependent kinase 5/CDK5 activator 1 (Homo sapiens)", "REPORTED": "9120 nM"}
{"COMPOUND": "NC1=NC(=O)/C(=C2\\CCNC(=O)c3[nH]c4ccccc4c32)N1", "ASSAYED TARGET": "Cyclin-dependent kinase 5/CDK5 activator 1 (Homo sapiens)", "REPORTED": "177 nM"}
{"COMPOUND": "NC1=NC(=O)/C(=C2\\CCNC(=O)c3[nH]c(Br)cc32)N1 [HYMENIALDISINE]", "ASSAYED TARGET": "Cyclin-dependent kinase 5/CDK5 activator 1 (Homo sapiens)", "REPORTED": "25 nM"}
{"COMPOUND": "NC1=NC(=O)/C(=C2\\CCNC(=O)c3[nH]c(Cl)c(Cl)c32)N1", "ASSAYED TARGET": "Cyclin-dependent kinase 5/CDK5 activator 1 (Homo sapiens)", "REPORTED": "62 nM"}
{"COMPOUND": "NC1=NC(=O)/C(=C2\\CCNC(=O)c3[nH]c(Br)c(Br)c32)N1", "ASSAYED TARGET": "Cyclin-dependent kinase 5/CDK5 activator 1 (Homo sapiens)", "REPORTED": "56 nM"}
{"COMPOUND": "O=C1NCC/C(=N\\Nc2ccc(Cl)cn2)c2c1[nH]c1ccc(F)cc21", "ASSAYED TARGET": "Cyclin-dependent kinase 5/CDK5 activator 1 (Homo sapiens)", "REPORTED": "75 nM"}
{"COMPOUND": "NC1=NC(=O)/C(=C2\\CCNC(=O)c3[nH]c4ccc(Br)cc4c32)N1", "ASSAYED TARGET": "Cyclin-dependent kinase 5/CDK5 activator 1 (Homo sapiens)", "REPORTED": "213 nM"}
{"COMPOUND": "O=C1NCC/C(=N\\Nc2cccnc2)c2c1[nH]c1ccc(F)cc21", "ASSAYED TARGET": "Cyclin-dependent kinase 5/CDK5 activator 1 (Homo sapiens)", "REPORTED": "12 nM"}

* * *

# ASSAYED TARGET: RAF proto-oncogene serine/threonine-protein kinase (Homo sapiens)
# Sequence (P04049 whole entry): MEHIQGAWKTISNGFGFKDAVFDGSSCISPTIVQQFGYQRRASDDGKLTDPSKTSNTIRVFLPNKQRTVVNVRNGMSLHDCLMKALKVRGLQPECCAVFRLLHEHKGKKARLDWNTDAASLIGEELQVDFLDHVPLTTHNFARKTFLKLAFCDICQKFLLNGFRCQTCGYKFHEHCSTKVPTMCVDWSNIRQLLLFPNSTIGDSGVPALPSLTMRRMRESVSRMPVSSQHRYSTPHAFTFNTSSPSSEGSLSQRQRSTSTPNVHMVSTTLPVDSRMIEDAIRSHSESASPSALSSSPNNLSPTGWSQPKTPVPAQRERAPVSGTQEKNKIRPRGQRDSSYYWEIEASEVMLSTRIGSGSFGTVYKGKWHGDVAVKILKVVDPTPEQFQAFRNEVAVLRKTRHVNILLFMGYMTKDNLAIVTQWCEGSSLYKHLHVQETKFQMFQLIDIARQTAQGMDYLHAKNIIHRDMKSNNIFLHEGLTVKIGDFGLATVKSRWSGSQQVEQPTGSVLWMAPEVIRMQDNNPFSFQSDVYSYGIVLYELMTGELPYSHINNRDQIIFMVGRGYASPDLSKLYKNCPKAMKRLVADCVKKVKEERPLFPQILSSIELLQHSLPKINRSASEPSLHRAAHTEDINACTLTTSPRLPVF

{"COMPOUND STRING": "O=C1Cc2c([nH]c3ccc(Br)cc23)-c2ccccc2N1", "IC50": "38 µM"}

* * *

# ASSAYED TARGET: CDK1/Cyclin E (Homo sapiens, UniProt P06493)
# Sequence (P06493 whole entry): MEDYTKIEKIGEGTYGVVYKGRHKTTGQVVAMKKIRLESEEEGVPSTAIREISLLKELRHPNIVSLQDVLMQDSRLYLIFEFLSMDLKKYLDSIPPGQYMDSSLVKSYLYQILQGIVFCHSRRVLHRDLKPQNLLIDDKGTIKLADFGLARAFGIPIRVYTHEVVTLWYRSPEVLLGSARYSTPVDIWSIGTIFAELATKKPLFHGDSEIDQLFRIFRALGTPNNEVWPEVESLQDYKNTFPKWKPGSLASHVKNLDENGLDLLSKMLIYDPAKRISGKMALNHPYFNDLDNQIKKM
# Sequence (P24864 whole entry, further chain): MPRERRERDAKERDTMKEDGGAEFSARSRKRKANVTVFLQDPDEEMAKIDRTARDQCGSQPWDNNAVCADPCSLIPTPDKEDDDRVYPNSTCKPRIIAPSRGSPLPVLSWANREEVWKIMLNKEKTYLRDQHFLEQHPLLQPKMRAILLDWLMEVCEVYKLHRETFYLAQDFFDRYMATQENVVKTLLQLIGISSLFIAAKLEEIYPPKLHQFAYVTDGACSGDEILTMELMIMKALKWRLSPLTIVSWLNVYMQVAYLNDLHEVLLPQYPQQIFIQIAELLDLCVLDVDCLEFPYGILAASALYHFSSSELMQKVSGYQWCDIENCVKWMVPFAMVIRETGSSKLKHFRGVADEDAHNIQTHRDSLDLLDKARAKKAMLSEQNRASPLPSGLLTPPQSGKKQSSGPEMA
# EXPERIMENT: Inhibition of CDK1/Cyclin E (unknown origin)

{"COMPOUND STRING": "NC1=NC(=O)/C(=C2\\CCNC(=O)c3[nH]c(Br)cc32)N1", "IC50 / nM": 40}

* * *

Below, each of the molecules is paired with its reported IC50 value.
# ASSAYED TARGET: Cyclin-dependent kinase 1/cyclin B (Homo sapiens)
# EXPERIMENT: Inhibition of CDK1/Cyclin B (unknown origin) in presence of gamma32P-ATP by scintillation counter analysis

{"COMPOUND STRING": "NC1=NC(=O)/C(=C2\\CCNC(=O)c3[nH]c4ccc(Cl)cc4c32)N1", "IC50 (nM)": 2300}
{"COMPOUND STRING": "O=C1NC(=O)/C(=C2\\CCNC(=O)c3[nH]c(Br)cc32)N1", "IC50 (nM)": 4000}
{"COMPOUND STRING": "CC(=O)NC1=NC(=O)/C(=C2\\CCNC(=O)c3[nH]c(Br)c(Br)c32)N1", "IC50 (nM)": 1500}
{"COMPOUND STRING": "N#Cc1ccc2[nH]c3c(c2c1)CC(=O)Nc1cccnc1-3", "IC50 (nM)": 500}

* * *

# Organism: Homo sapiens
# EXPERIMENT: Selectivity ratio of IC50 for Chk1 (unknown origin) to IC50 for (unknown origin)
Consider the following molecules and their measured Ratio IC50 readings.

{"MOLECULE": "CCCNC1=NC(=O)/C(=C2\\CCNC(=O)c3[nH]c(-c4ccccc4)cc32)N1", "INEQUALITY SIGN": ">", "Ratio IC50": 64}
{"MOLECULE": "O=C1N=C(NCc2ccccc2)N/C1=C1/CCNC(=O)c2[nH]c(-c3ccccc3)cc21", "INEQUALITY SIGN": "=", "Ratio IC50": 32}
{"MOLECULE": "COc1ccc(-c2cc3c([nH]2)C(=O)NCC/C3=C2/NC(N)=NC2=O)cc1OC", "INEQUALITY SIGN": "=", "Ratio IC50": 111}
{"MOLECULE": "NC1=NC(=O)/C(=C2\\CCNC(=O)c3[nH]c(-c4ccccc4)cc32)N1", "INEQUALITY SIGN": "=", "Ratio IC50": 66}
{"MOLECULE": "CNC1=NC(=O)/C(=C2\\CCNC(=O)c3[nH]c(-c4ccccc4)cc32)N1", "INEQUALITY SIGN": "=", "Ratio IC50": 38}
{"MOLECULE": "NC1=N/C(=C2/CCNC(=O)c3[nH]ccc32)C(=O)N1 [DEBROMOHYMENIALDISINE]", "INEQUALITY SIGN": "=", "Ratio IC50": 4}
{"MOLECULE": "NC1=NC(=O)/C(=C2\\CCNC(=O)c3[nH]c4ccccc4c32)N1", "INEQUALITY SIGN": "=", "Ratio IC50": 29}

* * *

Reported IC50 by item:
# ASSAYED TARGET: Integrin alpha-V/beta-3 (Homo sapiens, UniProt P05106+P06756)
# Sequence (P05106 27-788 limits assumed): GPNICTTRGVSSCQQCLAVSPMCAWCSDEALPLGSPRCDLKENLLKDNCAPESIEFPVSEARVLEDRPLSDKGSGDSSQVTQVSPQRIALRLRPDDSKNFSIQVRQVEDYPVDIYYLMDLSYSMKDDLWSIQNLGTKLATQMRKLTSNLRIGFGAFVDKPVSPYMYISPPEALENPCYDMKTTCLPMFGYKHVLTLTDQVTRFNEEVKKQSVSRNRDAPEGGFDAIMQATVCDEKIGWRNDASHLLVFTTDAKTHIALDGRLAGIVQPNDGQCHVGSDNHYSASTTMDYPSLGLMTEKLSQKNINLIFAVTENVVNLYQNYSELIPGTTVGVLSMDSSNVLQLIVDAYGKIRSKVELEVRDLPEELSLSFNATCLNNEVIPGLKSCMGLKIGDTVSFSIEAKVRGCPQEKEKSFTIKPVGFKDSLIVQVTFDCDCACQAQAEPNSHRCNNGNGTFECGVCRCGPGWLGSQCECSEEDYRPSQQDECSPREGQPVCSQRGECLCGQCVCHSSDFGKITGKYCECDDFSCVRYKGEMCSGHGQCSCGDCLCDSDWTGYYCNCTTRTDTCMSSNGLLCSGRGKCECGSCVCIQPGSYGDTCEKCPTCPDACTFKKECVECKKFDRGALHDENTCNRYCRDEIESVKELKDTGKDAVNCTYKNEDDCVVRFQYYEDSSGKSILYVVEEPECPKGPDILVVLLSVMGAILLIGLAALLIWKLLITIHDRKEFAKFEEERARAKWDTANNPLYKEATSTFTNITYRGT
# Sequence (P06756 31-889 limits assumed): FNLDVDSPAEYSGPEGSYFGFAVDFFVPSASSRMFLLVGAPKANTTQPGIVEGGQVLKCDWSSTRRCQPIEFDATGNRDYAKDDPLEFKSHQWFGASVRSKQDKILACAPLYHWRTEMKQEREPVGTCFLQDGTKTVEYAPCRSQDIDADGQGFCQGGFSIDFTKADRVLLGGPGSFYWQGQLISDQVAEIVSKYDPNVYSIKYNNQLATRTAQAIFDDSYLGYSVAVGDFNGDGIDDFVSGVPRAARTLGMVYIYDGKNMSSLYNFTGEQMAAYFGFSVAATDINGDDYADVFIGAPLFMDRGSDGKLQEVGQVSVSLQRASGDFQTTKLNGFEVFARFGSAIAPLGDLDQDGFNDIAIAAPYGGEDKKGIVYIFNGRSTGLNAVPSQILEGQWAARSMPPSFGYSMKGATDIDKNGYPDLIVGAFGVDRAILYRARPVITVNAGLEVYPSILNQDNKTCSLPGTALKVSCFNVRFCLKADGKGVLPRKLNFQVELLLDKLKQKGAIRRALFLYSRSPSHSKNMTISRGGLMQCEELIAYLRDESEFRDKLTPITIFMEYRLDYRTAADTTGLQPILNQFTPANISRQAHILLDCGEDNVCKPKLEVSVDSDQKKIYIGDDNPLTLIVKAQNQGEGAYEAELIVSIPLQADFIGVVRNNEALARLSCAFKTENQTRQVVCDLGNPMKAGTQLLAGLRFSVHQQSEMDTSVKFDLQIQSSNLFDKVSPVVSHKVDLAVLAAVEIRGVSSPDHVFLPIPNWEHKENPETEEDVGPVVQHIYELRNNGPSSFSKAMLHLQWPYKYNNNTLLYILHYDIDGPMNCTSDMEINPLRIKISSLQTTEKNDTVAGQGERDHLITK
# Sequence (P06756 891-1048 limits assumed): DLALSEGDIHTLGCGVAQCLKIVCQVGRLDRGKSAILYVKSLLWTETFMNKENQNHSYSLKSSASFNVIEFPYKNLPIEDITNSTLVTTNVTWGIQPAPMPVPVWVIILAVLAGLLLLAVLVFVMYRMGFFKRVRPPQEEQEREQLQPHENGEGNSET
# EXPERIMENT: Antagonist activity against human integrin alphaVbeta3 expressed in CHO-K1 cells measured after 4 hrs by Cell adhesion assay
QUANTITY: IC50 (nM)

{"MOLECULE": "COc1ccc2c(c1)C(CC(=O)O)CCC(=O)N2CC(=O)NC[C@H]1CC[C@H](Nc2nc3ccccc3[nH]2)CC1 (stereo partly drawn)", "QUANTITY": "IC50", "REPORTED": 0.26}
{"MOLECULE": "O=C(O)CC1CCC(=O)N(CC(=O)NCc2ccc(Nc3nc4ccccc4[nH]3)cc2)c2ccccc21 (stereo not drawn)", "QUANTITY": "IC50", "REPORTED": 0.5}
{"MOLECULE": "O=C(O)CC1CCC(=O)N(CC(=O)NC[C@H]2CC[C@H](Nc3nc4ccccc4[nH]3)CC2)c2ccccc21 (stereo partly drawn)", "QUANTITY": "IC50", "REPORTED": 0.04}
